- EXPERIMENTAL TARGET: monomeric HLA-A2:HPV16E7(11-19) peptide complex, soluble (human; human papillomavirus type 16)
- PROTOCOL NOTES: SPR 25C, mAb captured
READOUT: kon (M⁻¹ s⁻¹)
Give the number; M⁻¹ s⁻¹ is assumed, so skip it.

The value of kon measured for the binder H4sH17364N (antibody, V domains shown) VH: EVQLLESGGGLVQPGGSLRLSCAASGFTFSSYAMTWVRQAPGKGLEWVSVISGSGSETYYADSVKGRFTISRDNSKNTLYLQMNSLRAEDTAVYYCVKDSSYRSSSRAYYYYGMDVWGLGTTVTVSS VL: DIQMTQSPSSLSASVGDRVTITCRASQSISSYLNWYQQKPGKAPKLLIYAVSILQSGVPSRFSGSGSGTDFTLTISSLQPEDFATYSCQQTYSTPPITFGQGTRLEIKR turned out to be 85600

Each recorded value in this set is attributed to patent US20220001000A1.
